Target: T1, polypeptide GC3pep (human)
T1 construct: also called membrane proximal polypeptide GC3pep
T1 peptide: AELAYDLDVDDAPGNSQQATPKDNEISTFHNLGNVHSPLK
Assay: ELISA, GC3pep coated, antibody 10 nM;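 further: antibody bound to the coated peptide for 2 h at 37 °C, detected through an HRP-conjugated secondary antibody with TMB colour development stopped by acid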
measuredParameter: OD450 nm
Express the reported value numerically, then name its unit.

In the examples that follow, each entry is paired with its recorded OD450 nm.
F1.136.7 (antibody, human IgG1, kappa, V domains shown, human-murine chimeric antibody) VH: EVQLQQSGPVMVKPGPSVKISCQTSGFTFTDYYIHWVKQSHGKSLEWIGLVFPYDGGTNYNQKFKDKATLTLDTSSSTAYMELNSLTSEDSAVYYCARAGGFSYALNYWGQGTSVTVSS VL: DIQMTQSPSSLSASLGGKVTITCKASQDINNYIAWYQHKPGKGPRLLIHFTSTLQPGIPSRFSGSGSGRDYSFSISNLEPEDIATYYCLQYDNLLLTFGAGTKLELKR : 0.04 OD450 nm
F2.92.1 (antibody, human IgG1, kappa, V domains shown, human-murine chimeric antibody) VH: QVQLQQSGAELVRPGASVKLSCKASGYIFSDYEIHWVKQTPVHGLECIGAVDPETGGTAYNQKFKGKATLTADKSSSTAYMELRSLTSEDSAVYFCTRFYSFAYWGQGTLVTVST VL: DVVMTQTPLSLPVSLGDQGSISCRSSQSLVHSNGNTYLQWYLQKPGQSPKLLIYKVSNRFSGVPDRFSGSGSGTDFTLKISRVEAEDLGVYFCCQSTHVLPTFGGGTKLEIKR : 2.28 OD450 nm

INPUT: GET /values?readout=OD450 nm&item= F1.41.17 (antibody, human IgG1, kappa, V domains shown, human-murine chimeric antibody) VH: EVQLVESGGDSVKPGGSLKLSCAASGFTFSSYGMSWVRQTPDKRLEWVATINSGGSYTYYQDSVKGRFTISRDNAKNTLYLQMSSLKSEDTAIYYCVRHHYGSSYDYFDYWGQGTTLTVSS VL: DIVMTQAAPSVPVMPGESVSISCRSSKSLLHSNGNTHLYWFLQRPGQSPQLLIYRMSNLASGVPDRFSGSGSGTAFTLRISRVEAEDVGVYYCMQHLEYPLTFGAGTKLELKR
OUTPUT: 0.05 OD450 nm
